Measurement target: Nicotinic acetylcholine receptor alpha6/alpha3/beta4 (Homo sapiens, UniProt P30926+P32297+Q15825)
Sequence (P30926 whole entry): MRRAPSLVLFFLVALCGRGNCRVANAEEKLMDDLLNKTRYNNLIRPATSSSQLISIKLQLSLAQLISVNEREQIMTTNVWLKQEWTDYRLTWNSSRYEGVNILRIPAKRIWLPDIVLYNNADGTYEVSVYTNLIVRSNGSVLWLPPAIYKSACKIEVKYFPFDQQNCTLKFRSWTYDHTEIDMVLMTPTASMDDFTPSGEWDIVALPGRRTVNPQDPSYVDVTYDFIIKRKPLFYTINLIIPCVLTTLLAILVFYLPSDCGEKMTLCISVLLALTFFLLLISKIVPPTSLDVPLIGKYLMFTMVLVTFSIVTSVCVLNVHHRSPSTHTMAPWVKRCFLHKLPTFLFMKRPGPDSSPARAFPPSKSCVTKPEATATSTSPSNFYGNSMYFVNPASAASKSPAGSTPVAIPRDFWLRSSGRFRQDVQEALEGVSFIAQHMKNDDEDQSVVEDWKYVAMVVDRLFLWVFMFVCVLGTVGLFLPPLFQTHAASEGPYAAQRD
Sequence (P32297 whole entry): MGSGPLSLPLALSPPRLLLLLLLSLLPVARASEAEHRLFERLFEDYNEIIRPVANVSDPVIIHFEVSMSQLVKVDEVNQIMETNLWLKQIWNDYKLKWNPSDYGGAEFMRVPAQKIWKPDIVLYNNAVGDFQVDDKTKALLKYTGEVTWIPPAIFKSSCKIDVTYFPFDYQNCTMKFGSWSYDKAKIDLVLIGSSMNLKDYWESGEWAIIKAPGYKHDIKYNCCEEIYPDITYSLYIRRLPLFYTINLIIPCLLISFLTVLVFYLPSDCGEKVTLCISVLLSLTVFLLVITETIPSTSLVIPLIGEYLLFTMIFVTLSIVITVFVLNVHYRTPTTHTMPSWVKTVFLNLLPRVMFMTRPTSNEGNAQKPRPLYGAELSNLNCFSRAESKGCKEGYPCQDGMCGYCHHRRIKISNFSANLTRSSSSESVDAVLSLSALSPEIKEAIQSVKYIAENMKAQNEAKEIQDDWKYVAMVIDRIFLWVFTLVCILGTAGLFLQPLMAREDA
Sequence (Q15825 whole entry): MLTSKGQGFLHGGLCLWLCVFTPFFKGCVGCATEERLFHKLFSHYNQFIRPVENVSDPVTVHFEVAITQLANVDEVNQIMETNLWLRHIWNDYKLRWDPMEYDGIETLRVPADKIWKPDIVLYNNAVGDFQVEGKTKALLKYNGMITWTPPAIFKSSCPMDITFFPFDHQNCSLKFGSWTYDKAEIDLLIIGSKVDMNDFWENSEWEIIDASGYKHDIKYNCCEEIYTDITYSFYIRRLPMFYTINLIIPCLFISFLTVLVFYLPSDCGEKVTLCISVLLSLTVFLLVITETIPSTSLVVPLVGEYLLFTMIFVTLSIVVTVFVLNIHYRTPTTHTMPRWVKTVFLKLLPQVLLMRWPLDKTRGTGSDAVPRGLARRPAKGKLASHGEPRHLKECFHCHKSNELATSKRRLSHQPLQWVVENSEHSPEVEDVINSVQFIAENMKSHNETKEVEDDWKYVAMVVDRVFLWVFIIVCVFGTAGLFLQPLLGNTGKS
Assay explanation: Antagonist activity at rat alpha6/alpha3beta4 nAChR expressed in xenopus oocytes assessed as inhibition of Ach- induced response at -70 mV holding potential preincubated for 5 mins followed by Ach stimulation by voltage-clamp based electrophysiological method
Format: cell-based, Oocyte
pIC50: −log10 of the molar value. Where a SMILES comes first, the peptide text is derived from it. Bridges are numbered along the chain shown (N, C = ends).
Recorded endpoint: pIC50

>>> observed_measurement("C[C@@H]1NC(=O)[C@@H]2CSSC[C@H](NC(=O)CN)C(=O)N[C@@H](CSSC[C@@H](C(N)=O)NC(=O)[C@H](Cc3cnc[nH]3)NC(=O)[C@H](CCC(=O)O)NC(=O)[C@H](Cc3cnc[nH]3)NC1=O)C(=O)N[C@@H](CO)C(=O)N[C@@H](CC(N)=O)C(=O)N1CCC[C@H]1C(=O)N1CCC[C@H]1C(=O)N2 (H-GCCSNPPCAHEHC-NH2; disulfide 2-8, 3-13)")
5.85

====

Measurement target: Neuronal acetylcholine receptor; alpha2/beta2 (Rattus norvegicus, UniProt P12389+P12390)
Sequence (P12389 whole entry): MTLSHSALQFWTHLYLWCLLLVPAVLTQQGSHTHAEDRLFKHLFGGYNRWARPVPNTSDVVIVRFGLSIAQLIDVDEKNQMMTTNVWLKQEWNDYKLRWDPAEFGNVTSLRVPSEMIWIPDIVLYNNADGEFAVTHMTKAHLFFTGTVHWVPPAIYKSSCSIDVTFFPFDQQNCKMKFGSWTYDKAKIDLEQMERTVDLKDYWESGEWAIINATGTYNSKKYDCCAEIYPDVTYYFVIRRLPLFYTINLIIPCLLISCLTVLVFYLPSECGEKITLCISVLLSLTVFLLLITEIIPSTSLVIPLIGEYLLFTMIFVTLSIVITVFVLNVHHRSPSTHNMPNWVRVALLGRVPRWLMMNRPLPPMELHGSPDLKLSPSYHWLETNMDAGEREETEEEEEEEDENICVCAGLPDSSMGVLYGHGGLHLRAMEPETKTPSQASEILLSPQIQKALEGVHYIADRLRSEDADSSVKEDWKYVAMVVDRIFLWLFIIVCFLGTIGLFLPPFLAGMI
Sequence (P12390 whole entry): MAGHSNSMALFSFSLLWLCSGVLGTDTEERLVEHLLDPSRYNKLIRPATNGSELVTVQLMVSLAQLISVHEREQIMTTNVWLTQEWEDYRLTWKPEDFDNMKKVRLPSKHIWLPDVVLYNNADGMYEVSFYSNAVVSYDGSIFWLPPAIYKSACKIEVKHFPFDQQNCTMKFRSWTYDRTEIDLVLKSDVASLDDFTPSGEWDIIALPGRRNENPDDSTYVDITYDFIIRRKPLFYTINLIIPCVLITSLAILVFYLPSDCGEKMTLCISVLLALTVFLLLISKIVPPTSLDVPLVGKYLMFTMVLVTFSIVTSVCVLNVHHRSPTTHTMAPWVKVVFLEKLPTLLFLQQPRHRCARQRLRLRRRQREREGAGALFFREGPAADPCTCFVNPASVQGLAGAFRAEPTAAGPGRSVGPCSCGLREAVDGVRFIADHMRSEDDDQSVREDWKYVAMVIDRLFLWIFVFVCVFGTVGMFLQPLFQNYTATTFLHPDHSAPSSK
Assay explanation: Antagonist activity at rat alpha2beta2 nAChR expressed in xenopus oocytes assessed as inhibition of Ach- induced response at -70 mV holding potential preincubated for 5 mins followed by Ach stimulation by voltage-clamp based electrophysiological method
Where a SMILES comes first, the peptide text is derived from it. Bridges are numbered along the chain shown (N, C = ends).
Reported IC50 values for a set of compounds
Recorded endpoint: IC50

>>> observed_measurement("C[C@@H]1NC(=O)[C@@H]2CSSC[C@H](NC(=O)CN)C(=O)N[C@@H](CSSC[C@@H](C(=O)N[C@@H](CCCNC(=N)N)C(=O)O)NC(=O)[C@H](Cc3cnc[nH]3)NC(=O)[C@H](CCC(=O)O)NC(=O)[C@H](Cc3cnc[nH]3)NC1=O)C(=O)N[C@@H](CO)C(=O)N[C@@H](CC(N)=O)C(=O)N1CCC[C@H]1C(=O)N1CCC[C@H]1C(=O)N2 (H-GCCSNPPCAHEHCR-OH; disulfide 2-8, 3-13)")
"> 10 µM"
>>> observed_measurement("C[C@@H]1NC(=O)[C@@H]2CSSC[C@H](N)C(=O)N[C@@H](CSSC[C@@H](C(N)=O)NC(=O)[C@H](Cc3cnc[nH]3)NC(=O)[C@H](CCC(=O)O)NC(=O)[C@H](Cc3cnc[nH]3)NC1=O)C(=O)N[C@@H](CO)C(=O)N[C@@H](CC(N)=O)C(=O)N1CCC[C@H]1C(=O)N1CCC[C@H]1C(=O)N2 (H-CCSNPPCAHEHC-NH2; disulfide 1-7, 2-12)")
"> 10 µM"

====

Reported IC50 values for a set of compounds
Measurement target: Neuronal acetylcholine receptor; alpha2/beta2 (Rattus norvegicus, UniProt P12389+P12390)
Assay explanation: Antagonist activity at rat alpha2beta2 nAChR expressed in xenopus oocytes assessed as inhibition of Ach- induced response at -70 mV holding potential preincubated for 5 mins followed by Ach stimulation by voltage-clamp based electrophysiological method
Where a SMILES comes first, the peptide text is derived from it. Bridges are numbered along the chain shown (N, C = ends).
Recorded endpoint: IC50

>>> observed_measurement("C[C@@H]1NC(=O)[C@@H]2CSSC[C@H](NC(=O)CN)C(=O)N[C@@H](CSSC[C@@H](C(N)=O)NC(=O)[C@H](Cc3cnc[nH]3)NC(=O)[C@H](CCC(=O)O)NC(=O)[C@H](Cc3cnc[nH]3)NC1=O)C(=O)N[C@@H](CO)C(=O)N[C@@H](CC(N)=O)C(=O)N1CCC[C@H]1C(=O)N1CCC[C@H]1C(=O)N2 (H-GCCSNPPCAHEHC-NH2; disulfide 2-8, 3-13)")
"> 10 µM"
>>> observed_measurement("C[C@@H]1NC(=O)[C@@H]2CSSC[C@H](NC(=O)[C@@H](N)CCC(N)=O)C(=O)N[C@@H](CSSC[C@@H](C(N)=O)NC(=O)[C@H](Cc3cnc[nH]3)NC(=O)[C@H](CCC(=O)O)NC(=O)[C@H](Cc3cnc[nH]3)NC1=O)C(=O)N[C@@H](CO)C(=O)N[C@@H](CC(N)=O)C(=O)N1CCC[C@H]1C(=O)N1CCC[C@H]1C(=O)N2 (H-QCCSNPPCAHEHC-NH2; disulfide 2-8, 3-13)")
"> 10 µM"
>>> observed_measurement("C[C@@H]1NC(=O)[C@@H]2CSSC[C@H](NC(=O)[C@@H](N)CCC(N)=O)C(=O)N[C@@H](CSSC[C@@H](C(=O)N[C@@H](CCCNC(=N)N)C(=O)O)NC(=O)[C@H](Cc3cnc[nH]3)NC(=O)[C@H](CCC(=O)O)NC(=O)[C@H](Cc3cnc[nH]3)NC1=O)C(=O)N[C@@H](CO)C(=O)N[C@@H](CC(N)=O)C(=O)N1CCC[C@H]1C(=O)N1CCC[C@H]1C(=O)N2 (H-QCCSNPPCAHEHCR-OH; disulfide 2-8, 3-13)")
"> 10 µM"
